# System: LP-1 cell line
# assay comment: Cell-based pERK ELISA, LP-1 cells
# experimental conditions: LP-1 human multiple myeloma cells, FGF-1/Heparin stimulation; read-out: IC50 against the LP-1 cell line (pERK ELISA)
pIC50: −log10 of the molar value.
quantity: pIC50

For this compound ( `O=C(c1ccn2c(-c3cccc(Nc4nncs4)c3)cnc2c1)N1CCC1` ), measured pIC50 is > 6.00
